# MEASURED ON: HIF1A
# RUN DESCRIPTION: HeLa, 100 nM transfected, 24 h, mean of 3
# CONDITION: ASO
Bases are written 5' to 3'; sugars and linkages follow in the same order, as letters with counts (s phosphorothioate, o phosphodiester; PS: all linkages phosphorothioate). C may stand for cytosine or 5-methylcytosine; the collection does not tell. l = locked nucleic acid (LNA); d = 2'-deoxy (DNA)
Would you kindly list caspase activation (% of PBS control) for each of these sequences?
One number for each entry.

Please review the following examples before continuing.
GTTACTGCCTTCTTAC (sugars llldlddddddldldl, PS): 316
GTTACTGCCTTCTTAC (sugars ldlddddddddlldll, PS): 135
GTTACTGCCTTCT (sugars l2 d9 l2, PS): 114
GTTACTGCCTTCTTAC (sugars l2 d11 l1 d1 l1, PS): 129
GTTACTGCCTTCTTAC (sugars lldllddddddllldl, PS): 506
GTTACTGCCTTCT (sugars l4 d6 l3, PS): 356
GTTACTGCCTTCTTAC (sugars l1 d2 l1 d11 l1, PS): 91.7
TTACTGCCTTCTT (sugars l1 d2 l1 d6 l3, PS): 131
TGGCAAGCATCCTGTA (sugars lldlddddddddlddl, PS): 604
GTTACTGCCTTCTTAC (sugars lldldddddddddldl, PS): 138

Lab note: each sequence below needs its caspase activation (% of PBS control) filled in.
1. ACTGCCTTCTTAC (sugars l1 d10 l2, PS)
2. GGCAAGCATCCTG (sugars l1 d9 l3, PS)
3. TGGCAAGCATCCT (sugars l2 d1 l1 d6 l3, PS)
4. GTTACTGCCTTCTTAC (sugars l3 d12 l1, PS)

Outgoing:
120
468
259
127
